# Tested On: T1, VLP2 (virus-like particles of AAV2) (AAV2, UniProt P03135 1-735; P03135 1-598; P03135 1-533)
# T1 construct: Empty AAV2 capsid; background says about 60 protein molecules, VP1:VP2:VP3 = 1:1:10; Immobilised on the ELISA plate
# T1 sequence (P03135 whole entry, chain 1 of 3): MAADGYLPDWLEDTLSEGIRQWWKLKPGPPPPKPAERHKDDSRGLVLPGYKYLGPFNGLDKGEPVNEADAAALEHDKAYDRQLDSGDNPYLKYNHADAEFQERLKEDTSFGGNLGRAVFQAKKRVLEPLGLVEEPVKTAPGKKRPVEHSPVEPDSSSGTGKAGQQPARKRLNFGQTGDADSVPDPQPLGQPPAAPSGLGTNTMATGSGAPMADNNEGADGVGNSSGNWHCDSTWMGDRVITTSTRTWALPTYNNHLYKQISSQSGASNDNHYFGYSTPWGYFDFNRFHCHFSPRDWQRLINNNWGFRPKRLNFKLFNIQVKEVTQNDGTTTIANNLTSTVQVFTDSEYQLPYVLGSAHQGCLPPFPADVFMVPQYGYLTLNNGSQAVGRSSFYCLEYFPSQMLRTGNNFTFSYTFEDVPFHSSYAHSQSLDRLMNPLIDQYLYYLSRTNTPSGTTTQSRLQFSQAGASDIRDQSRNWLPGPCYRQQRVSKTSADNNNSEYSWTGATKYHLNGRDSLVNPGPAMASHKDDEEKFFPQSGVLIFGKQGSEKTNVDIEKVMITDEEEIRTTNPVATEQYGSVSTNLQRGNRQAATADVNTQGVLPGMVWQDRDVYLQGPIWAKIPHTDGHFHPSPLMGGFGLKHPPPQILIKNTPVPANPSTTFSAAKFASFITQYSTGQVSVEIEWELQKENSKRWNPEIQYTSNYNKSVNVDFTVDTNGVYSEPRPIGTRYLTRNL
# T1 sequence (P03135 139-735, tags left off, chain 2 of 3): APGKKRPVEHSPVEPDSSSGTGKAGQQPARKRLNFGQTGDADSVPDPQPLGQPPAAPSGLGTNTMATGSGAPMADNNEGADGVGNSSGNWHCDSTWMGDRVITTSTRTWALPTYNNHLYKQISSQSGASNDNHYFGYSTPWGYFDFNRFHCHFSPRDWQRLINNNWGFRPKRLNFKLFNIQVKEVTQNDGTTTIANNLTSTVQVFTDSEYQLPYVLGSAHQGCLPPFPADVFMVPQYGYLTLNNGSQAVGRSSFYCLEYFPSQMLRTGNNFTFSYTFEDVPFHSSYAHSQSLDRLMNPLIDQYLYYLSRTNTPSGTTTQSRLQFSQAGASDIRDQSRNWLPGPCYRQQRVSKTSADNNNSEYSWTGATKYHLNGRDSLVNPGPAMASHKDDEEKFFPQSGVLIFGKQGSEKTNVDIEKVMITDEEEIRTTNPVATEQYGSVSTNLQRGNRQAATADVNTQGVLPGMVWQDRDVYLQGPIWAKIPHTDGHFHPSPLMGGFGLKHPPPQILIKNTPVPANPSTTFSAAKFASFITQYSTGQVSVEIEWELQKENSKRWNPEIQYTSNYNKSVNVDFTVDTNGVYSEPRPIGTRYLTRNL
# T1 sequence (P03135 203-735, chain 3 of 3): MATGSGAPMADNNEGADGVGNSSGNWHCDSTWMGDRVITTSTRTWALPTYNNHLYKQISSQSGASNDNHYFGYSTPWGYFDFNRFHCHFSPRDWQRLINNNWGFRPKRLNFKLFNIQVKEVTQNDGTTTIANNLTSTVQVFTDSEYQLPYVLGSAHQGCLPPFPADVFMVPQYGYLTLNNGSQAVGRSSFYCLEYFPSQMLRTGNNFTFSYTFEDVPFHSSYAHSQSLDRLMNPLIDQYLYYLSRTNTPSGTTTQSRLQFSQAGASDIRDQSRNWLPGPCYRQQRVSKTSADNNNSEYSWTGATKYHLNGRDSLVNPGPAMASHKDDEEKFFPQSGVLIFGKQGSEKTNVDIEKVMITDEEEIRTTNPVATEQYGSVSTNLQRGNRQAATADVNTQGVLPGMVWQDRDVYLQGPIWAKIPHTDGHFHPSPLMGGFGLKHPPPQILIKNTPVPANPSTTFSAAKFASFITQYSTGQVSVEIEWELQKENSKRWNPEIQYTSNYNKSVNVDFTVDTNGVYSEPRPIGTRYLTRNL
# Protocol Notes: ELISA on VLP2; A450 after 50.3°C 15 min / untreated
Field: Residual activity [%]. Provide a value for each of the binders that follow.
// units = %; emit number, no label

## Input Which Residual activity [%] is listed for AAV-binding protein No. 49 (Tyr331Cys, Thr343Met, Tyr355Cys) (receptor) MGSAGESVQITLPKNEVQLNACVLQEPPKGETYMYDWQLITHPRDCSGEMEGKHSQILKLSKLTPGLYEFKVIVEGQNAHGEGYVNVTVKPEPRKNRPPIAIVSPQFQEISLPTTSTVIDGSQSTDDDKIVQYHWEELKGPLREEKISEDTAILKLSKLVPGNYTFSLTVVDSDGATNSTTANLTVNKAVDHHHHHH ?
## Output 77.3

## Input Can you share its Residual activity [%]? I mean this binder: wild-type AAV-binding protein (extracellular domains 1 and 2, PKD1 and PKD2, of KIAA0319L/AAVR, positions 312-500 of SEQ ID NO: 1, with His tag) (receptor, Expressed in E. coli; tested as extract, culture supernatant or purified protein; also called wild-type AVR; product of pET-AAVRD2) MGSAGESVQITLPKNEVQLNAYVLQEPPKGETYTYDWQLITHPRDYSGEMEGKHSQILKLSKLTPGLYEFKVIVEGQNAHGEGYVNVTVKPEPRKNRPPIAIVSPQFQEISLPTTSTVIDGSQSTDDDKIVQYHWEELKGPLREEKISEDTAILKLSKLVPGNYTFSLTVVDSDGATNSTTANLTVNKAVDHHHHHH
## Output 16.1

## Input // Residual activity [%] lookup, key: AAV-binding protein No. 47 (Asn329Tyr, Tyr377Cys, Arg406Ser) (receptor) MGSAGESVQITLPKNEVQLYAYVLQEPPKGETYTYDWQLITHPRDYSGEMEGKHSQILKLSKLTPGLCEFKVIVEGQNAHGEGYVNVTVKPEPRKNSPPIAIVSPQFQEISLPTTSTVIDGSQSTDDDKIVQYHWEELKGPLREEKISEDTAILKLSKLVPGNYTFSLTVVDSDGATNSTTANLTVNKAVDHHHHHH
## Output 64.5
